B1: CAMK2D (parent)
chain: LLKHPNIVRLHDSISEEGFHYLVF

# Variants of: B1
# Test description: protein stability index of a GFP-peptide fusion (GPS, HEK-293T) (PSI 1-6); higher = more stable;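 further: lentivirally expressed fusions sorted by FACS into six bins by GFP to DsRed ratio, PSI derived from sequencing read proportions per bin multiplied by bin number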
# Run conditions: c terminus: a fixed tail appended
Label scheme for protein stability index: lower than 2 is false, 2 and above is true.

Reference set (9 entries):
| Seq text | Discrete label |
| --- | --- |
| LLKHPNIVRLHDSISEEGFHYLVY [F24Y] | true |
| PLKHPNIVRLHDSISEEGFHYLVF [L1P] | false |
| LLKHPNIVRLHQSISEEGFHYLVF [D12Q] | false |
| LLKHPNIVRLHDSISEEGEHYLVF [F19E] | true |
| LLKHPNIVRLLDSISEEGFHYLVF [H11L] | false |
| LLKHPNIVRLCDSISEEGFHYLVF [H11C] | true |
| LLKHPNIVRLEDSISEEGFHYLVF [H11E] | true |
| LLKHPNIVRLHDSISEEGFHALVF [Y21A] | false |
| LLKHPNIVRLHDSISEEGFHNLVF [Y21N] | true |

Let's switch to this variant now.
Req: // inclusive: protein stability index at least 2? input: LLKGPNIVRLHDSISEEGFHYLVF [H4G]
Resp: true
